Examples of compounds with documented IC50 follow.
biological target: testosterone (T) production in NCI-H295R cells (Homo sapiens, UniProt P05108); construct: testosterone measured by LC-MS/MS as downstream steroid; test: H295R Steroid Biosynthesis Inhibition Assay - inhibition of testosterone (T) production in NCI-H295R cells; details: 48 h, LC-MS/MS, read-out: Inh. of T IC50
METRIC: IC50

[[record]]
compound = "CNC(=O)N1CCC(c2cnc3cc(CN4Cc5ccccc5C4)ccc3n2)CC1 [Compound 115]"
system = "testosterone (T) production in NCI-H295R cells (Homo sapiens, UniProt P05108)"
observed = "≤ 40 nM"

[[record]]
compound = "CS(=O)(=O)N1C[C@@H]2[C@H](C1)[C@H]2c1ccc2cc(CN3Cc4ccccc4C3)ccc2n1 [Compound 56]"
system = "testosterone (T) production in NCI-H295R cells (Homo sapiens, UniProt P05108)"
observed = "≤ 40 nM"

[[record]]
compound = "CS(=O)(=O)N1CCC(c2cnc3cc(CN4Cc5ccccc5C4)cnc3c2)CC1 [Compound 80]"
system = "testosterone (T) production in NCI-H295R cells (Homo sapiens, UniProt P05108)"
observed = "≤ 40 nM"

[[record]]
compound = "CS(=O)(=O)N1CCC(c2cnc3cc(CN4Cc5ccccc5C4)ccc3c2)CC1 [Compound 69]"
system = "testosterone (T) production in NCI-H295R cells (Homo sapiens, UniProt P05108)"
observed = "≤ 40 nM"

[[record]]
compound = "CS(=O)(=O)N1CCC(c2ccc3cc(CN4Cc5ccccc5C4)cnc3n2)CC1 [Compound 78]"
system = "testosterone (T) production in NCI-H295R cells (Homo sapiens, UniProt P05108)"
observed = "≤ 40 nM"

[[record]]
compound = "CS(=O)(=O)N1CCC(c2cc(=O)n3cc(CN4Cc5ccccc5C4)ccc3n2)CC1 [Compound 62]"
system = "testosterone (T) production in NCI-H295R cells (Homo sapiens, UniProt P05108)"
observed = "≥ 101 nM"

[[record]]
compound = "CN(C)C(=O)N1CCC(c2cnc3cc(CN4Cc5ccccc5C4)ccc3n2)CC1 [Compound 121]"
system = "testosterone (T) production in NCI-H295R cells (Homo sapiens, UniProt P05108)"
observed = "41 to 100 nM"

[[record]]
compound = "CC(C)(O)[C@H]1CC[C@H](c2cc3oc(CN4Cc5ccccc5C4)cc(=O)c3o2)CC1 [Compound 32]"
system = "testosterone (T) production in NCI-H295R cells (Homo sapiens, UniProt P05108)"
observed = "≤ 40 nM"

[[record]]
compound = "CS(=O)(=O)N1CCC(COc2coc(CN3CCc4sccc4C3)cc2=O)CC1 [Compound 5]"
system = "testosterone (T) production in NCI-H295R cells (Homo sapiens, UniProt P05108)"
observed = "≥ 101 nM"

[[record]]
compound = "CCOC(=O)N1CCC(c2cnc3cc(CN4Cc5ccccc5C4)ccc3n2)CC1 [Compound 111]"
system = "testosterone (T) production in NCI-H295R cells (Homo sapiens, UniProt P05108)"
observed = "≤ 40 nM"

[[record]]
compound = "CS(=O)(=O)N1C[C@@H]2[C@H](C1)[C@H]2c1cnc2cc(CN3Cc4ccccc4C3)ccc2n1 [Compound 86]"
system = "testosterone (T) production in NCI-H295R cells (Homo sapiens, UniProt P05108)"
observed = "41 to 100 nM"

[[record]]
compound = "CS(=O)(=O)N1CCC(c2cc3oc(CN4Cc5ccc(F)cc5C4)cc(=O)c3o2)CC1 [Compound 17]"
system = "testosterone (T) production in NCI-H295R cells (Homo sapiens, UniProt P05108)"
observed = "≤ 40 nM"

[[record]]
compound = "CS(=O)(=O)N1C[C@@H]2[C@@H](COc3coc(CN4Cc5ccccc5C4)cc3=O)[C@@H]2C1 [Compound 1]"
system = "testosterone (T) production in NCI-H295R cells (Homo sapiens, UniProt P05108)"
observed = "41 to 100 nM"

[[record]]
compound = "CS(=O)(=O)N1CCC(c2cc3oc(CN4Cc5ccc(C(F)(F)F)cc5C4)cc(=O)c3o2)CC1 [Compound 20]"
system = "testosterone (T) production in NCI-H295R cells (Homo sapiens, UniProt P05108)"
observed = "≤ 40 nM"

[[record]]
compound = "O=S(=O)(C1CC1)N1CCC(c2cnc3cc(CN4Cc5ccccc5C4)ccc3n2)CC1 [Compound 95]"
system = "testosterone (T) production in NCI-H295R cells (Homo sapiens, UniProt P05108)"
observed = "≤ 40 nM"

[[record]]
compound = "CS(=O)(=O)N1CC=C(c2coc3cc(CN4Cc5ccccc5C4)ccc3c2=O)CC1 [Compound 65]"
system = "testosterone (T) production in NCI-H295R cells (Homo sapiens, UniProt P05108)"
observed = "≤ 40 nM"

[[record]]
compound = "N#C[C@]1(c2cc3oc(CN4Cc5ccccc5C4)cc(=O)c3o2)CC[C@H](O)CC1 [Compound 43]"
system = "testosterone (T) production in NCI-H295R cells (Homo sapiens, UniProt P05108)"
observed = "41 to 100 nM"

